Read-out: X-box binding protein 1 (XBP1), XBP1 (gene 7494)
test-protocol: LTEA_HepaRG_XBP1: Life Technologies and Expression Analysis (LTEA) Assay for X-box binding protein 1 (XBP1) using HepaRG (AID 2283540)
test-settings: mRNA level, 48 h; actives raise or lower the signal
Calls of active or inactive are those of the source. How the source made its calls: active means hit-call score of the fitted dose curve at least 0.9, where 1 is the maximum; inactive means score below 0.9.
observed-property: AC50

Consider the reported AC50 for these compounds:
compound | AC50
CCC(C)c1ccccc1O (centres undefined) | inactive
CN(C)CCOC(c1ccccc1)c1ccccc1 | inactive
CS(=O)(=O)c1ccc([C@@H](CC2CCCC2)C(=O)Nc2cnccn2)cc1Cl | inactive
CCCCC(CC)C(=O)O (centres undefined) | inactive
O=C(CCCN1CCC(O)(c2ccc(Cl)cc2)CC1)c1ccc(F)cc1 | inactive

Req: // AC50 lookup, key: N=C(N)c1ccc(OCCCCCOc2ccc(C(=N)N)cc2)cc1
Resp: 28.5 µM (active)

Req: // AC50 lookup, key: CC(=O)Nc1ccc(O)cc1
Resp: inactive

Req: // AC50 lookup, key: O=C1NS(=O)(=O)c2ccccc21
Resp: inactive

Req: // AC50 lookup, key: Cc1[nH]nc2c1N=C(c1ccccc1Cl)c1cc([N+](=O)[O-])ccc1N2
Resp: 3.64 µM (active)

---

test-protocol: CEETOX_H295R_CORTISOL: CeeTox H295R High-throughput Steroidogenesis Assay for Cortisol (AID 2283438);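 further: cortisol secreted into medium quantified by LC-MS/MS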
test-settings: actives raise or lower the signal
Activity calls are given as the source filed them. How the source made its calls: active means hit-call score of the fitted dose curve at least 0.9, where 1 is the maximum; inactive means score below 0.9.
Would you mind answering with one of these outcomes? active, inactive

Previously resolved entries follow.
chemical-structure | class
CC(C)(C)c1ccc(O)c(O)c1 | active
O=C(NCc1ncc(C(F)(F)F)cc1Cl)c1c(Cl)cccc1Cl | inactive

Req: # outcome recorded in this test, key = Cc1cccc2c1ccc1ccccc12
Resp: inactive

Req: # outcome recorded in this test, key = c1cc[nH]c1
Resp: inactive

Req: # outcome recorded in this test, key = O=C(CCCN1CCC(O)(c2ccc(Cl)cc2)CC1)c1ccc(F)cc1
Resp: inactive

Req: # outcome recorded in this test, key = Oc1cc2ccccc2cc1O
Resp: inactive

Req: # outcome recorded in this test, key = COc1cc([N+](=O)[O-])ccc1N
Resp: inactive

Req: # outcome recorded in this test, key = COc1cccc(O)c1
Resp: inactive

Req: # outcome recorded in this test, key = CCCCCc1ccc(O)cc1
Resp: inactive

---

tested-system: Hepatocyte nuclear factor 3-beta (Homo sapiens) (UniProt Q9Y261)
Sequence (Q9Y261 whole entry, looked up): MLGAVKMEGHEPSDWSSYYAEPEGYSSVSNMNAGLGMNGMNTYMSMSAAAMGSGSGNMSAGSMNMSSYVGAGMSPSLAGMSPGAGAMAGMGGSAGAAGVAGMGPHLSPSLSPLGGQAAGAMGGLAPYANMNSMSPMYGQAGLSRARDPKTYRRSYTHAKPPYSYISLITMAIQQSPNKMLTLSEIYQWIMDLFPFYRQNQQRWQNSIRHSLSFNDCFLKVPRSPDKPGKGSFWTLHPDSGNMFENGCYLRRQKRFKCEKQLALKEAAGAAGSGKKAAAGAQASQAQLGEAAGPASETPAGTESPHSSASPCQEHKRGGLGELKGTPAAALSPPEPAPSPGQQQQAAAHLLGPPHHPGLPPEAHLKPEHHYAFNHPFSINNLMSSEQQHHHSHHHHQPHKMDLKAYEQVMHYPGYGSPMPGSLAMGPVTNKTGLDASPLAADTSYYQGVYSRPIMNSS
test-protocol: ATG_FoxA2_CIS: Attagene CIS-FACTORIAL HepG2 Assay for human Forkhead box A2 (FOXA2) (AID 2282942)
test-settings: HepG2 cis-reporter transcription factor activity, 24 h; actives raise or lower the signal
Activity calls are given as the source filed them. How the source made its calls: active means hit-call score of the fitted dose curve at least 0.9, where 1 is the maximum; inactive means score below 0.9.
Would you mind answering with one of these outcomes? active, inactive

Previously resolved entries follow.
compound | tested-system | class
CC(=O)Nc1ccc(S(N)(=O)=O)cc1 | Hepatocyte nuclear factor 3-beta (Homo sapiens) (UniProt Q9Y261) | inactive
O=C(Nc1cccc([N+](=O)[O-])c1)c1cc2ccccc2cc1O | Hepatocyte nuclear factor 3-beta (Homo sapiens) (UniProt Q9Y261) | inactive
O=C1OC(=O)C(F)(F)C1(F)F | Hepatocyte nuclear factor 3-beta (Homo sapiens) (UniProt Q9Y261) | inactive
O=C(NO)c1ccccc1 | Hepatocyte nuclear factor 3-beta (Homo sapiens) (UniProt Q9Y261) | inactive
CC(C)(C)c1ccc(O)c(O)c1 | Hepatocyte nuclear factor 3-beta (Homo sapiens) (UniProt Q9Y261) | inactive
CCc1ccccc1O | Hepatocyte nuclear factor 3-beta (Homo sapiens) (UniProt Q9Y261) | inactive
Oc1cc2ccccc2cc1O | Hepatocyte nuclear factor 3-beta (Homo sapiens) (UniProt Q9Y261) | inactive
CCO[Si](C)(C)OCC | Hepatocyte nuclear factor 3-beta (Homo sapiens) (UniProt Q9Y261) | inactive

Could you now look at the following compound, please?
Req: # outcome recorded in this test, key = NCCN
Resp: inactive
